Source of measurements: the supplement of paper PMC10567573

B1: CCND1 (parent)
chain: PEAEENKQIIRKHAQTFVALCATD

- Variants of: B1
- protocol: protein stability index of a GFP-peptide fusion (GPS, HEK-293T) (PSI 1-6); higher = more stable;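 note: lentivirally expressed fusions sorted by FACS into six bins by GFP to DsRed ratio, PSI derived from sequencing read proportions per bin multiplied by bin number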
- experimental_setup: c terminus: a fixed tail appended
recorded_metric: protein stability index
Answer with a number only.

Recorded protein stability index for "R11A" , please?
3.58

Query (variant): "K7M" ; field requested: protein stability index
3.17

Please report the recorded protein stability index for "T23Y" .
2.47

Bench note: what protein stability index did "E2M" show?
2.98

// lookup protein stability index for "F17V"
4.33

Look up protein stability index for this variant: "K12F"
2.51

Give its protein stability index value. Item: "L20D"
4.62

What value of protein stability index has been reported for the following variant? "Q8I"
2.19

Form field: reported protein stability index of "K7A"
3.37

Dear colleague, I am looking for the recorded protein stability index of the following variant: "C21M"
3.28

Query: protein stability index; subject: "F17H"
4.86

Param item = "N6L" ; retrieve measured protein stability index.
1.88

protein stability index for "Q15G" ?
3.11

Fill in the blank: the reported protein stability index of "E4S" is ____.
2.21

What value of measured protein stability index is listed for "T16F" ?
3.37

Given the variant "K7Y" , what is its reported protein stability index?
2.62

Return reported protein stability index; argument: "I9V"
3.04

Would you kindly share the measured protein stability index for "Q8S" ?
2.58

Look up protein stability index for this variant: "K7V"
2.54

Return reported protein stability index; argument: "D24W"
2.39

Entry "D24F" : reported protein stability index = ?
2.23

I'd like to know its protein stability index. The variant in question is "A19T"
4.06
